# target or test system: Rat tail monomeric collagen I (Corning) (rat) (UniProt P02454)
# procedure summary: competitive ELISA on plate-coated rat tail collagen I, competitor biotin Compound 1B; IC50 against that of Compound 1
No end group written: not given here.
measure: ratio IC50sample/IC50 Compound 1

binder	ratio IC50sample/IC50 Compound 1
GQLYKSILYGSGSGSRR (not fully specified (C-terminus); also: several peptides per HA backbone, peptide load 10) [HA108 backbone HA, 10PM]	14.8

[P] GQLYKSILYGSGSGSRR (not fully specified (C-terminus); also: several peptides per HA backbone, peptide load 20) [HA108 backbone HA, 20PM]
[Q] GQLYKSILYGSGSGSRR (not fully specified (C-terminus); also: several peptides per HA backbone, peptide load 50) [HA108 backbone HA, 50PM]
[R] GQLYKSILYGSGSGSRR (not fully specified (C-terminus); also: several peptides per HA backbone, peptide load 30) [HA108 backbone HA, 30PM]
[in] List items by ratio IC50sample/IC50 Compound 1 in falling order. # format: label list in the order the request specifies
[out] R, Q, P
(R: 13.4, Q: 7.49, P: 2.82)
